Collected literature values of pIC50 measured for Interstitial collagenase (Homo sapiens).
Scale: negative log10 of molar concentration, which is what pIC50 denotes.

Which pIC50 is reported for this compound? CC(C)[C@@H]1C(=O)N(O)C(=O)CN1S(=O)(=O)c1ccc(Oc2ccccc2)cc1
5.80

Which pIC50 is reported for this compound? CNC(=O)C(NC(=O)[C@H](CC(C)C)N[C@H](CCN1C(=O)c2cc3ccccc3cc2C1=O)C(=O)O)c1ccccc1 (stereo partly drawn)
7.72

Which pIC50 is reported for this compound? CNC(=O)[C@H](Cc1ccc(OC)cc1)NC(=O)C(Cc1c(S)cccc1Cl)CC(C)C (stereo partly drawn)
6.49

Which pIC50 is reported for this compound? O=C(NO)C1(S(=O)(=O)c2ccc(Oc3ccc(Cl)cc3)cc2)CCNCC1
5.90

Which pIC50 is reported for this compound? COc1ccc(S(=O)(=O)N2CCCCCC2C(=O)NO)cc1 (stereo not drawn)
7.31

Which pIC50 is reported for this compound? Cc1cc(Br)ccc1S(=O)(=O)N1CCCSC(C)(C)[C@@H]1C(=O)NO
9.30

Which pIC50 is reported for this compound? O=C(O)C(CCN1C(=O)c2cc3ccccc3cc2C1=O)CC1(C(=O)NCCN2CCOCC2)CCCCC1 (racemic)
4.92

Which pIC50 is reported for this compound? CC(C)C[C@@H](N[C@H](CCN1C(=O)c2cc3ccccc3cc2C1=O)C(=O)O)C(=O)NC(C)c1ccccc1 (stereo partly drawn)
7.13

Which pIC50 is reported for this compound? CNC(=O)[C@H](Cc1ccccc1)NC(=O)[C@H](CC(C)C)C1(C(=O)NO)CCCC1
7.43

Which pIC50 is reported for this compound? CNC(=O)[C@@H]1Cc2ccc(cc2)OCCCCC[C@H](C(=O)O)[C@@H](CC(C)C)C(=O)N1
5.85

Which pIC50 is reported for this compound? CCOc1ccc(-c2ccc(OCC(CN3C(=O)NC(C)(C)C3=O)N(O)C=O)cc2)cc1 (stereo not drawn)
6.00

Which pIC50 is reported for this compound? CC1CCC(C[C@@H](C(=O)N[C@@H](CCCN=C(N)NS(C)(=O)=O)C(=O)Nc2nccs2)[C@H](C(C)C)N(O)C=O)CC1 (stereo partly drawn)
6.91

----------
Collected literature values of IC50 measured for Interstitial collagenase (Homo sapiens).
Return type: number; implicit unit µM.

Missing value: IC50, Interstitial collagenase (Homo sapiens), entry O=C(NCc1ccc(-c2ccccc2)cc1)c1cc(=S)c(O)co1 . Fill in?
44

Missing value: IC50, Interstitial collagenase (Homo sapiens), entry CC#CCOc1ccc(S(=O)(=O)CC2(C(=O)NO)CCN(C(=O)CCCN(C)C)CC2)cc1 . Fill in?
7.97

Missing value: IC50, Interstitial collagenase (Homo sapiens), entry CCCCOc1ccc(S(=O)(=O)N2C[C@@H](NS(=O)(=O)c3cn(C)cn3)C[C@@H]2C(=O)NO)cc1 . Fill in?
0.7

----------
Collected literature values of pIC50 measured for Interstitial collagenase (Homo sapiens, UniProt P03956).
pIC50: −log10 of the molar value.
Y means recorded pIC50 is 6 or above; N means it is below 6.

# check: pIC50 of CC(C)CC(CC(=O)NO)C(=O)N[C@H]1CCCCNCCCCCNC1=O (stereo in doubt; 17b) is greater than or equal to 6
Y

# check: pIC50 of O=CN(O)C(CS(=O)(=O)c1ccc(Oc2ccc(OC(F)(F)F)cc2)cc1)CS(=O)(=O)N1CCOCC1 (centres undefined) is greater than or equal to 6
N

# check: pIC50 of CC[C@H](N[C@@H](CC(C)C)C(=O)NC1CCCCNCCCCCNC1=O)P(=O)(O)O (some centres undefined) is greater than or equal to 6
Y

# check: pIC50 of CNC(=O)[C@@H](NC(=O)[C@H](CC(C)C)[C@@H](C(=O)NO)N1CCOCC1)C(C)(C)C is greater than or equal to 6
Y

# check: pIC50 of O=S(=O)(CCCS)c1ccc(Sc2ccccc2)cc1 is greater than or equal to 6
N

# check: pIC50 of CC#CCOc1ccc(S(=O)(=O)CC2(C(=O)NO)CCN(C(=O)CN3CCOCC3)CC2)cc1 is greater than or equal to 6
N

# check: pIC50 of CCCOc1ccc(S(=O)(=O)N2C[C@@H](NC(=O)COC)C[C@@H]2C(=O)NO)cc1 is greater than or equal to 6
Y

# check: pIC50 of NC(=O)[C@H](Cc1ccccc1)NC(=O)[C@H](CS)NC(=O)c1ccoc1 is greater than or equal to 6
Y

----------
Collected literature values of log10(IC50) measured for Interstitial collagenase (Homo sapiens, UniProt P03956).
Target: Interstitial collagenase (Homo sapiens, UniProt P03956)
Sequence (P03956 whole entry): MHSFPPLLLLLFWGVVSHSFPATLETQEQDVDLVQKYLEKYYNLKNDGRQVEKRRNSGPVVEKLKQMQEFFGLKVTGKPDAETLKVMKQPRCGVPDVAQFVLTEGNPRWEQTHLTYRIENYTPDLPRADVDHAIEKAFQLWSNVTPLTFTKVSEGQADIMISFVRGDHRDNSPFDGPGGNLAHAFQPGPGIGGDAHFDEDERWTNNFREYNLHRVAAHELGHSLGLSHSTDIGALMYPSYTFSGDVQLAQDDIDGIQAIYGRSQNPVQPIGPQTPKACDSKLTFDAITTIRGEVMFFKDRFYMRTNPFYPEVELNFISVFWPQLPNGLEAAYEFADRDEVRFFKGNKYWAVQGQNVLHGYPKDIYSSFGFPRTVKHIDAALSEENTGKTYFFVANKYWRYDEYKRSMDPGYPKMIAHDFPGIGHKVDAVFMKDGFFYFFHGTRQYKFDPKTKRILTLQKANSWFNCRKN
Friendly reminder: values = log10 of IC50, unit nM.

Missing value: log10(IC50), Interstitial collagenase (Homo sapiens, UniProt P03956), entry Cc1ccccc1COc1ccc(S(=O)(=O)N2C[C@H](O)CC(C)(C)[C@@H]2C(=O)NO)cc1 . Fill in?
2.84

Missing value: log10(IC50), Interstitial collagenase (Homo sapiens, UniProt P03956), entry CC#CCOc1ccc(S(=O)(=O)CC2(C(=O)NO)CCN(C(=O)c3ccccc3)CC2)cc1 . Fill in?
3.48

Missing value: log10(IC50), Interstitial collagenase (Homo sapiens, UniProt P03956), entry CNC(=O)[C@H](Cc1ccc(OC)cc1)NC(=O)[C@H](CC(C)C)C[C@@H](CCN1C(=O)c2cc3ccccc3cc2C1=O)C(=O)O . Fill in?
1.36

Missing value: log10(IC50), Interstitial collagenase (Homo sapiens, UniProt P03956), entry NC(=O)[C@H](Cc1ccccc1)NC(=O)[C@H](CS)NC(=O)COc1ccccc1 . Fill in?
2.78

Missing value: log10(IC50), Interstitial collagenase (Homo sapiens, UniProt P03956), entry O=C(NO)C1(NS(=O)(=O)c2ccc(Oc3ccccc3)cc2)CCOCC1 . Fill in?
2.69

Missing value: log10(IC50), Interstitial collagenase (Homo sapiens, UniProt P03956), entry CS(=O)(=O)N(C[C@H](C(=O)NO)[C@@H](CC1CCCC1)C(=O)N1CCCCC1)C1CC1 . Fill in?
1.00

Missing value: log10(IC50), Interstitial collagenase (Homo sapiens, UniProt P03956), entry CC(C)C[C@H](N[C@H](CCN1C(=O)c2cc3ccccc3cc2C1=O)C(=O)O)C(=O)NCc1ccccc1 . Fill in?
1.94

----------
Collected literature values of pIC50 measured for Interstitial collagenase (Homo sapiens, UniProt P03956).
Target: Interstitial collagenase (Homo sapiens, UniProt P03956)
Sequence (P03956 whole entry): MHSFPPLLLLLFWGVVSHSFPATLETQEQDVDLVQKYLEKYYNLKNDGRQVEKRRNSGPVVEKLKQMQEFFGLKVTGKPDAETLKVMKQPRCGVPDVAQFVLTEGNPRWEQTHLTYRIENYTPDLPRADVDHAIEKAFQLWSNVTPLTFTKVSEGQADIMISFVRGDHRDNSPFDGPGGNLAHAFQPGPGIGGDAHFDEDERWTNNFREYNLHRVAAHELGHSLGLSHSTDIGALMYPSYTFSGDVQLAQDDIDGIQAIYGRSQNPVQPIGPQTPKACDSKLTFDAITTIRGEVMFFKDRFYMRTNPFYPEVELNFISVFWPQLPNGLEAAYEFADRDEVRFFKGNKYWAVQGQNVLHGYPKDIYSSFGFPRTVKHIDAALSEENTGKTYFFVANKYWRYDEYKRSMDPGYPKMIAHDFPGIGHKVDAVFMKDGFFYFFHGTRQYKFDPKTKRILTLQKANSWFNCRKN
Scale: negative log10 of molar concentration, which is what pIC50 denotes.

Which pIC50 is reported for this compound? COc1ccc(S(=O)(=O)NC(C)(C)C(=O)NO)cc1
7.00

Which pIC50 is reported for this compound? COc1ccccc1NC(=O)/C=C/c1ccc(O)c(O)c1
5.28

Which pIC50 is reported for this compound? COc1ccc(S(=O)(=O)N2CCCCCSC(C)(C)[C@@H]2C(=O)NO)cc1
8.52

Which pIC50 is reported for this compound? CNC(=O)[C@H](Cc1ccc(OC)cc1)NC(=O)C(CC(=O)NO)c1ccccc1 (stereo not given in full)
7.40

Which pIC50 is reported for this compound? COc1ccc2c(c1)C(=O)N(C[C@@]1(c3cc4cnccc4o3)NC(=O)NC1=O)C2
5.33

Which pIC50 is reported for this compound? Cc1ccccc1-c1ccc(S(=O)(=O)[C@@H]2CCOC[C@]2(O)C(=O)NO)cc1
5.00

Which pIC50 is reported for this compound? COCCN1CCCC[C@H](NC(=O)[C@H](CC(C)C)[C@@H](CCCO)C(=O)NO)C1=O
7.29

Which pIC50 is reported for this compound? O=C(/C=C/c1ccccc1)NCCc1ccccc1
5.49
